Taken from the supplement of paper PMC10883282.

Exercise: for every item that follows, state its recorded relative viability.
Test system: MES-SA
Test: relative viability vs DMSO control (72 h) (fraction); higher = more viable cells
Settings: 0.00017 µM

query: What does the data say about its relative viability? Entry: `Cn1cnc2c(F)c(Nc3ccc(Br)cc3F)c(C(=O)NOCCO)cc21`
result: 0.927

query: One more molecule: `CNC(=O)c1ccc(-c2cnc3ncc(Cc4ccc5ncccc5c4)n3n2)cc1F`
result: 0.93

query: What about this molecule? `CCc1cc2c(cc1N1CCC(N3CCOCC3)CC1)C(C)(C)c1[nH]c3cc(C#N)ccc3c1C2=O`
result: 0.896

====

Tested on: HS729
Assay: relative viability vs DMSO control (72 h) (fraction); higher = more viable cells
Settings: 0.00152 µM
parameter-measured: relative viability
// return just the number, without any unit appended

query: Look up relative viability for this molecule: Cc1nc(NC(=O)N2CCC[C@H]2C(N)=O)sc1-c1ccnc(C(C)(C)C(F)(F)F)c1 [Alpelisib]
result: 0.922

query: Follow-up item: `C[C@@H]1COCCN1c1cc(-c2ccnn2C)c2ccnc(-c3ccn[nH]3)c2n1`
result: 0.92

query: And C[C@@H](c1ccc2nccn2c1)n1nnc2ncc(-c3cnn(C)c3)nc21 [Volitinib] ?
result: 0.978

query: Do the same for Nc1cc(C(F)(F)F)c(-c2cc(N3CCOCC3)nc(N3CCOCC3)n2)cn1 [Buparlisib] please
result: 0.936

query: Another molecule to look at: Cc1cc(C)c(/C=C2\C(=O)Nc3ccccc32)[nH]1 [Semaxanib]
result: 0.895

query: Item: CC[C@H](Nc1ncnc2[nH]cnc12)c1nc2cccc(F)c2c(=O)n1-c1ccccc1 [Idelalisib]
result: 1.03

query: And C=CC(=O)Nc1cccc(Oc2nc(Nc3ccc(N4CCN(C)CC4)cc3)nc3ccsc23)c1 [Olmutinib] ?
result: 0.996

query: Now the same for Cn1cc(-c2cc3c(N4CCN(c5ncc([C@@](C)(N)c6ccc(F)cc6)cn5)CC4)ncnn3c2)cn1 [Avapritinib]
result: 0.931

query: Check CC(=O)Nc1cccc(-n2c(=O)n(C3CC3)c(=O)c3c(Nc4ccc(I)cc4F)n(C)c(=O)c(C)c32)c1 [Trametinib] too.
result: 0.918

query: Request: C[C@]1(O)C[C@@H](c2nc(-c3ccc4ccc(-c5ccccc5)nc4c3)c3c(N)nccn32)C1 [Linsitinib]
result: 0.996

query: Thanks! And CCc1cc2c(cc1N1CCC(N3CCOCC3)CC1)C(C)(C)c1[nH]c3cc(C#N)ccc3c1C2=O [Alectinib] ?
result: 0.958

query: Can you check O=C(Nc1cnn2ccc(N3CCC[C@@H]3c3cc(F)ccc3F)nc12)N1CC[C@H](O)C1 [Larotrectinib] next?
result: 0.895
